Test system: HL-60 (Homo sapiens)
assay protocol: Inhibition of cell growth in human HL-60 cells after 48 hrs by MTT assay
condition parameters: HL-60, 48 h
experimental endpoint: pIC50
Numbers only, as −log10 of the molar value.

Hello, I would appreciate it if you could give pIC50 for each entry below.
1. CCCCc1ccc2[nH]c(-c3ccc(C(F)(F)F)cc3)c(C=C(C#N)C#N)c2c1
2. COc1cc([C@@H]2c3cc4c(cc3[C@@H](O[C@@H]3O[C@@H]5CO[C@@H](C)O[C@H]5[C@H](O)[C@H]3O)[C@H]3COC(=O)[C@H]23)OCO4)cc(OC)c1O [ETOPOSIDE]
3. CCCCCc1ccc2[nH]c(-c3ccc(OC)cc3)c(C=C(C#N)C#N)c2c1

[7.15, 6.50, 7.39]

From: ChEMBL document CHEMBL1137541
